# SYSTEM_TESTED: MyD88^TIR (Homo sapiens, UniProt Q99836)
# Construct: MyD88 (residues 148–296); 6xHis; made in house; host or cells: E. coli BL21 (DE3)
# Sequence (Q99836 148-296): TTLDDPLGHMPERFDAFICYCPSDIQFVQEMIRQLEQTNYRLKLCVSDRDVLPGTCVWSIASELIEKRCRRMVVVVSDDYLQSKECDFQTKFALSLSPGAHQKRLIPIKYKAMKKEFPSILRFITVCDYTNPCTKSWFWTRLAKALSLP
# PROTOCOL_TEXT: T‐Surf phage library (P8 and P3) selection against MyD88^TIR, four rounds, NGS read counts
# Format: binding
# CONDITION_DETAILS: P8_MyD88: rank by count after grouping
Listing of entries alongside the reported Rank (after).
# answer = number (no unit)

As a guide, the following entries are already answered.
LGYHCMDWEYFVGIED: 390
DPQDLDWIYERLVSRF: 436
DPQDLDRFYERLLSLL: 428
DWAWDYLLPNLEGSAG: 432

Task: Please report Rank (after) for the following sequence: DPQDLEWFYERLVSLIP
Result: 453

----------
# SYSTEM_TESTED: MyD88^TIR (Homo sapiens, UniProt Q99836)
# Construct: MyD88 (residues 148–296); 6xHis; made in house; host or cells: E. coli BL21 (DE3)
# PROTOCOL_TEXT: T‐Surf phage library (P8 and P3) selection against MyD88^TIR, four rounds, NGS read counts
# Assay type: binding
# CONDITION_DETAILS: P8_MyD88: rank by count before grouping
PROPERTY_MEASURED: Rank (before)
# answer = number (no unit)

As a guide, the following entries are already answered.
SFTDHLYAALVQAGIL: 137
SWAVDELLKILQAWDE: 151
WALDGLLKILHARELF: 1413

Task: Please report Rank (before) for the following sequence: ASSSFALDQLSYFLSL
Result: 243

Task: Please report Rank (before) for the following sequence: DPQDLDWCYERLVSRC
Result: 2817

Task: Please report Rank (before) for the following sequence: DPQDLEWFYERLFSR
Result: 1113

Task: Please report Rank (before) for the following sequence: LGYRWIVWEYFVGIED
Result: 3224

----------
# SYSTEM_TESTED: MyD88^TIR (Homo sapiens)
# Construct: MyD88 (residues 148–296); 6xHis; made in house; host or cells: E. coli BL21 (DE3)
# PROTOCOL_TEXT: T‐Surf phage library (P8 and P3) selection against MyD88^TIR, four rounds, NGS read counts
# Assay type: binding
# CONDITION_DETAILS: P8_MyD88: rank by NGS read count before grouping
# Experimental: T‐Surf libraries were screened against the immobilized TIR domains of two major human TLR adaptor proteins, MAL^TIR and MyD88^TIR, allowing cross‐species selection of TIR‐binding motifs with 190 946 TIR‐derived peptides in a single binding assay (Scheme 1). Enriched phage pools from the fourth round of selection were analyzed using NGS after barcoding the peptide‐coding regions of the phage pools. […]
PROPERTY_MEASURED: Rank (before)
# answer = number (no unit)

As a guide, the following entries are already answered.
WFLFTVRSAIYAMSPA: 1358
PQDLEWFYERMVGLIL: 3429
DLVWDYLLPNLAGPAG: 2386
LEYRWIDWEYFVGLED: 3357
WALGELLQILQARERC: 1408

Here is the next item to consider.
Task: Please report Rank (before) for the following sequence: IDDDHLTYLVRLLYSLHVTE
Result: 3629

----------
Listing of entries alongside the reported P8_MyD88 Rank (before).
# SYSTEM_TESTED: MyD88^TIR (Homo sapiens, UniProt Q99836)
# Construct: MyD88 (residues 148–296); 6xHis; made in house; host or cells: E. coli BL21 (DE3)
# PROTOCOL_TEXT: T‐Surf phage library (P8 and P3) selection against MyD88^TIR, four rounds, NGS read counts
# Assay type: binding
# CONDITION_DETAILS: P8 library, selection against MyD88, rank by count before grouping

As a guide, the following entries are already answered.
DPQVLEWLYKRLFSQM: 2648
YASSSWALDELLQILW: 1891
DWVWDYLLPIWKAQR: 2449
DPQEQLSFCERLITVF: 2995
DPLGQVRLSFRLFRQI: 2610
DWVLGYRLPNLEGPAG: 2395
VSHLSDSFERYGIMFF: 2266
PDEVKRTVGLTFSLSL: 3407

Task: Please report P8_MyD88 Rank (before) for the following sequence: GWAWDYLLPNLEGPAG
Result: 2275

Task: Please report P8_MyD88 Rank (before) for the following sequence: DRQDLVWPYERLVSLL
Result: 2599

Task: Please report P8_MyD88 Rank (before) for the following sequence: WRWMNCCRFCMRVNC
Result: 1649
